- System: Mus musculus
- Protocol Text: Phototoxicity in Swiss albino mouse assessed as erythema incidence at 140 mg/kg, po after 48 hrs of irradiation
- Assay type: organism-based
- Parameters: dose 140 mg/kg, route oral
- Condition Set: in vivo
Measured Parameter: Activity

> print(dat)
                                   compound  reported.value
1  CCn1cc(C(=O)O)c(=O)c2cc(F)c(N3CCNC(C)C3)c(F)c21 (stereo not given)           Toxic
2  COc1c(N2CCN(C(=O)C3COc4ccccc4O3)CC2)c(F)cc2c(=O)c(C(=O)O)cn(C3CC3)c12 (stereo not given)       Non-toxic
3  CCN(CC)C(=O)C1CCCN(c2c(F)cc3c(=O)c(C(=O)O)cn(C4CC4)c3c2OC)C1 (stereo not given)       Non-toxic
4  COc1c(N2CC(C)OC(C)C2)c(F)c([N+](=O)[O-])c2c(=O)c(C(=O)O)cn(C3CC3)c12 (stereo not given)       Non-toxic
5  COc1ccc(CC2C3=C(CCCC3)CCN2c2c(F)c([N+](=O)[O-])c3c(=O)c(C(=O)O)cn(C4CC4)c3c2OC)cc1 (stereo not given)       Non-toxic
